# assay.comment: Partition coefficient (logD7.4)
# test.conditions: octanol/water, pH 7.4
Kindly apply the following: Satisfied if logD is less than -0.8, Not satisfied in every other case.

{"structure.notation": "Brc1cccc(Br)c1N(Cc1ccccc1)C1=NCCN1", "discrete.label": "Not satisfied"}
{"structure.notation": "Clc1cccc(Cl)c1N(CC1CC1)C1=NCCN1", "discrete.label": "Satisfied"}
{"structure.notation": "Brc1cccc(Br)c1N(CC1CC1)C1=NCCCN1", "discrete.label": "Satisfied"}
{"structure.notation": "CCCCN(C1=NCCN1)c1c(Br)cccc1Br", "discrete.label": "Satisfied"}
{"structure.notation": "C=C(C)CCN(C1=NCCN1)c1c(Br)cccc1Br", "discrete.label": "Not satisfied"}
{"structure.notation": "Brc1ccc(Br)c(N(CC2CC2)C2=NCCN2)c1", "discrete.label": "Not satisfied"}
{"structure.notation": "Brc1cccc(Br)c1N(CC1CCCC1)C1=NCCN1", "discrete.label": "Not satisfied"}
{"structure.notation": "CCCCCN(C1=NCCN1)c1c(Br)cccc1Br", "discrete.label": "Not satisfied"}

Q: Problem: For the compound C=CCN(C1=NCCN1)c1c(Cl)cccc1Cl , is logD under -0.8?
Ans: Satisfied

Q: Next entry: CC(C)=CCN(C1=NCCN1)c1c(Br)cccc1Br
Ans: Not satisfied

Q: Moving on to the next compound: C=CCN(C1=NCCN1)c1c(Br)cccc1Br
Ans: Not satisfied

Q: Likewise for Brc1ccccc1N(CC1CC1)C1=NCCN1 ?
Ans: Satisfied
